Let's look at some compounds and their measured growth.
- Tested on: TK-10 renal
- Protocol description: NCI-60 one-dose screen, 48 h (100 = growth as untreated, 0 = no growth, -100 = all killed)
- Condition parameters: 10 µM unless noted
Compounds without any hit were thinned out: in the full panel of roughly 83,000, 20% have a hit.
Metric: growth (%)

>>> df
                                   compound  value_observed
0                NC(=O)CN1C(=O)c2ccccc2C1=O             103
1                          Cc1nc(C)c(C)nc1C            95.7
2  COc1ccc2oc(=O)cc(-c3c(C#N)c(N)n4nc(N)c(C#N)c4c3C#N)c2c1            90.4
3  Nc1n[nH]c2cccc(C#Cc3cccc(NC(=O)c4cc(N5CCOCC5)cc(C(F)(F)F)c4)c3)c12            36.5
4  COc1ccc(-n2nc(C(=O)NCC(=O)O)nc2-c2ccccc2)cc1            94.1
5  COc1ccc(-n2cc(-c3ccc(Cl)c(Cl)c3)[nH]c2=O)cc1OC            96.6
6  COc1cc2nc3c(=O)n(CCN(C)C)cnn3c(=O)c2cc1OC             103
7  CCCCCCCc1n(Cc2ccc3ccccc3c2)c2ccccc2[n+]1Cc1ccc2ccccc2c1           -87.3
8  COc1ccc(C(=O)c2cc(OC)c(C)c(OC)c2)cc1OC(=O)CCl            66.5
9  CC(C)NS(=O)(=O)c1cccc(-c2ccc3c4c(n(CCCN(C)C)c(=O)c3c2)-c2ccccc2C4=O)c1             114
